# Test system: HT29 colon
# method_notes: NCI tumour cell line growth inhibition, 48 h
measurement_kind: TGI

Answered cases to consult:
{"columns": ["compound", "system_tested", "observed_result"],
 "data": [
  ["NC(=S)NNC(=O)CCC(=O)Nc1ccc(Cl)cc1Cl", "HT29 colon", "> 100 µM"],
  ["Cc1cc(S(=O)(=O)NC2=NC(c3ccccc3)c3ccccc3N2)c(S)cc1Cl (configuration not stated)", "HT29 colon", "> 100 µM"],
  ["CC(C)c1c(O[Si](C(C)C)(C(C)C)C(C)C)c2c3c(ccc4c3c1OC4(C)C)C(C)CC2 (configuration not stated)", "HT29 colon", "> 100 µM"],
  ["CC(C)(C)OC(=O)NC1CCC[C@H]1O (some centres not stated)", "HT29 colon", "> 100 µM"],
  ["Cc1ccccc1-c1c(N)nc(N)nc1C(=O)Nc1nccs1", "HT29 colon", "> 100 µM"],
  ["Nc1ccn(C2CC(O)C(CO)O2)c(=O)n1 (configuration not stated)", "HT29 colon", "> 5000 µM"]
]}

# returns recorded TGI (system: HT29 colon) for `CC(=O)Nc1ccccc1-c1cnc2ccccc2n1`
> 100 µM

What TGI appears in the records for this compound with HT29 colon? NC1CC(=O)c2csc(Cl)c21 (configuration not stated)
29.2 µM

What is its TGI for HT29 colon? Entry: `Nc1nnc(N)n1NC(=O)C(=O)Nc1ccc([N+](=O)[O-])cc1`
> 100 µM

Hello, I am looking for reported TGI with HT29 colon for `C[C@]12CC[C@H](O)C=C1CC[C@@H]1[C@@H]2CC[C@]2(C)C(=N/O)/C(=C/c3ccncc3)C[C@@H]12` . Could you help?
18.9 µM

# value lookup — system HT29 colon, readout TGI, item `O=C1c2cc3c(cc2[C@@H]2[C@H]1c1ccc([N+](=O)[O-])cc1C(=O)N2CCCCl)OCO3`
> 100 µM

====

Recorded TGI, one value per entry.
# Test system: MOLT-4 leukemia
# method_notes: NCI tumour cell line growth inhibition, 48 h

Below, each entry is followed by its recorded TGI result.
{"columns": ["molecule", "TGI"],
 "data": [
  ["O=C1C[C@@H](Sc2ccccc2)C2(OCCO2)[C@H]2ON3CCC[C@@H]3[C@@H]12", "8.7 µM"],
  ["CC(=O)C1C(=O)C(=O)N(c2ccccc2N2C(=O)C(=O)C(C(C)=O)C2=O)C1=O (centres undefined)", "> 100 µM"],
  ["COc1ccc(C2CC(=O)CC(c3ccc(OC)cc3)C23C(=O)NC(=S)NC3=O)cc1 (centres undefined)", "> 100 µM"],
  ["NC(=S)NNC(=O)CCC(=O)Nc1ccc(Cl)cc1Cl", "> 100 µM"],
  ["Cc1ccccc1-c1c(N)nc(N)nc1C(=O)Nc1nccs1", "> 100 µM"],
  ["COC(=O)n1c(=O)n(-c2ccccc2)c(=O)n1C(=O)Nc1ccccc1", "> 100 µM"],
  ["Cc1ccsc1C(=O)C(CC(=O)c1cccs1)c1ccsc1 (centres undefined)", "> 100 µM"],
  ["CO[C@H]1C[C@@H]2CC[C@@H](C)[C@@](O)(O2)C(=O)C(=O)N2CCCC[C@H]2C(=O)O[C@H]([C@H](C)C[C@@H]2CC[C@@H](OP(C)(C)=O)[C@H](OC)C2)CC(=O)[C@H](C)/C=C(\\C)[C@@H](O)[C@@H](OC)C(=O)[C@H](C)C[C@H](C)/C=C/C=C/C=C/1C", "37.1 µM"],
  ["CN(C)CCNC(=O)Cn1ccc(=O)c2ccc([N+](=O)[O-])cc21", "> 100 µM"],
  ["COc1cc2nc(-c3ccccc3F)[nH]c(=O)c2cc1OC", "> 100 µM"]
]}

Hello, I am looking for reported TGI with MOLT-4 leukemia for CC1(Br)C(=O)NC(=O)N(C2CC(N=[N+]=[N-])C(CO)O2)C1N=[N+]=[N-] (centres undefined) . Could you help?
> 100 µM

Request: TGI, test system MOLT-4 leukemia, entry Cc1ccc2c(c1)SC(c1cc3c(cc1Br)OCO3)S2 (centres undefined)
> 31.6 µM

Observed TGI on MOLT-4 leukemia for CC(C)(C)OC(=O)NC(Cc1ccc(OCc2ccccc2)cn1)C(=O)NCc1ccccc1 (centres undefined) , please.
42 µM

Notebook: pull reported TGI for MOLT-4 leukemia, entry NCCCC1NC(=O)/C(=C(O)/C=C/C2CCC[C@@H]2CC2SCCS2)C1=O (some centres undefined)
> 100 µM

====

# Test system: HCT-116 colon
# method_notes: NCI tumour cell line growth inhibition, 48 h
Here the recorded TGI is given for each entry.

Some entries whose results are on file:
{"columns": ["molecule", "observed_result"],
 "data": [
  ["O=C1OC(C2=CC(=O)c3ccccc3C2=O)C(Cl)=C1Cl (stereo not given)", "> 100 µM"],
  ["CC(C)(C)CC(C)(C)N=C(N)NO", "> 100 µM"],
  ["COc1ccc(C2=Nn3c(nc4sc(-c5ccccc5)cc4c3=O)SC2)cc1", "> 100 µM"],
  ["COc1cc([C@@H]2c3cc4c(cc3[C@@H](NCc3ccccc3)C3COC(=O)[C@@H]32)OCO4)cc(OC)c1O (stereo not given in full)", "> 100 µM"]
]}

// next entry
Give the measured TGI of `O=C(/C=C\c1ccccc1)Oc1ccc(/C=C2\CCCCC2=O)cc1` .
> 100 µM

====

# Test system: COLO 205 colon
# method_notes: NCI tumour cell line growth inhibition, 48 h
measurement_kind: TGI

{"columns": ["compound", "system_tested", "measurement_kind", "observed_result"],
 "data": [
  ["CN1CCCC1=NC#N", "COLO 205 colon", "TGI", "> 100 µM"],
  ["CCOC(=O)CCC(NC(=O)c1ccc(Nc2nc3ccccc3n3cccc23)cc1)C(=O)OCC (centres undefined)", "COLO 205 colon", "TGI", "> 100 µM"],
  ["O=C(Cc1ccccc1)NNc1nc(NNC(=O)c2ccncc2)nc(Nc2ccccc2)n1", "COLO 205 colon", "TGI", "> 10 µM"]
]}

Turning to the following compound.
Returns the measured TGI for the input compound. Input: `CCCc1c(C(=O)OCC)[nH]c(-c2ccc(-c3[nH]c(C(=O)OCC)c(CCC)c3C(=O)OCC)o2)c1C(=O)OCC`
> 100 µM

====

# Tested on: HCC-2998 colon
# method_notes: NCI tumour cell line growth inhibition, 48 h; in the data active means GI50 below about 0.43 µM; inactive means the rest
Hello, when you answer, please use one of the following outcomes: active, inactive

{"columns": ["molecule", "class_assignment"],
 "data": [
  ["COC(=O)c1ccc2c(c1)C(=O)c1c-2n(CCCN)c(=O)c2cc([N+](=O)[O-])ccc12", "active"],
  ["O=c1oc2ccc(Cl)cc2c(=O)n1-c1cc(C(F)(F)F)cc(C(F)(F)F)c1", "active"],
  ["CCN(C(=O)CCl)C(C)(C)C(SSSC(c1ccc(Cl)cc1)C(C)(C)N(CC)C(=O)CCl)c1ccc(Cl)cc1 (stereo not given)", "inactive"],
  ["ICCC(c1ccccc1)(c1ccccc1)c1ccccc1", "inactive"]
]}

Status in this test for `O=C1c2cc3c(cc2[C@@H]2[C@H]1c1ccc([N+](=O)[O-])cc1C(=O)N2CCCCl)OCO3` ?
active

====

# Tested on: SK-MEL-2 melanoma
# method_notes: NCI tumour cell line growth inhibition, 48 h; in the data active = GI50 below about 0.43 µM; inactive = the rest
Give one outcome, nothing more. List: active, inactive

{"columns": ["compound", "system_tested", "class_assignment"],
 "data": [
  ["COc1cc2ccnc3c2c(c1OC)-c1ccc(=O)ccc1-3", "SK-MEL-2 melanoma", "inactive"]
]}

Tell me the recorded outcome of this test for O=C(OCC1OC(OC(=O)c2cc(O)c(O)c(OC(=O)c3cc(O)c(O)c(O)c3)c2)C(OC(=O)c2cc(O)c(O)c(OC(=O)c3cc(O)c(O)c(O)c3)c2)C(OC(=O)c2cc(O)c(O)c(OC(=O)c3cc(O)c(O)c(O)c3)c2)C1OC(=O)c1cc(O)c(O)c(OC(=O)c2cc(O)c(O)c(O)c2)c1)c1cc(O)c(O)c(OC(=O)c2cc(O)c(O)c(O)c2)c1 (stereo not drawn) .
inactive

Dear all, I need the recorded test outcome for `CCCCCCCCCCCC[n+]1ccccc1` , thank you.
inactive

Called result for `CO[C@H]1C[C@@H]2CC[C@@H](C)[C@@](O)(O2)C(=O)C(=O)N2CCCC[C@H]2C(=O)O[C@H]([C@H](C)C[C@@H]2CC[C@@H](OP(C)(C)=O)[C@H](OC)C2)CC(=O)[C@H](C)/C=C(\C)[C@@H](O)[C@@H](OC)C(=O)[C@H](C)C[C@H](C)/C=C/C=C/C=C/1C`
inactive

What is the recorded call for this compound in the test? O=C(Nc1ccccc1)NS(=O)(=O)c1ccc(N2N=C3c4ccccc4CC3C2c2ccccn2)cc1 (stereo not drawn)
inactive

What did the test return for `CN1CCN(Cc2ccc(NC(=O)c3nc4ccc5[nH]ncc5c4c4c3CCC4)cc2C(F)(F)F)CC1` ?
inactive

How was `c1ccc(-c2nnc(Nc3ccc4c(c3)OCCO4)o2)c(NCc2ccncc2)c1` classified in this test?
active
